# test_method_notes: yeast display, Sf9 membrane polyspecificity reagent, FACS + sequencing; frameworks hold sequencing errors
measurement_name: polyreactivity (PSR sort gate)

Here are 4 sequences together with their reported answers.
[[record]]
polymer_sequence = "QVQLVESGGGLVQAGGSLRLSCAASGSTFFYYAMGWYRQAPGKERELVAAISRNGGSTYYADSVKGRFTISRDNAKNTVYLQMNSLKPEDTAVYYCNAYNLAGRYFDYWGQGTQVTVSS"
result = "high polyreactivity"

[[record]]
polymer_sequence = "QVQLVESRGGLVQAGGSLRLSYAASGYFFRYNSMGWYRQAPGTERELVAAMSRGGTTYYADSVTGRFTISRDNAMNTVYLQMNSLKPEDTEVYYCAAGRKVQSRRYGYWGQGTQVTVSS"
result = "high polyreactivity"

[[record]]
polymer_sequence = "QVQLVESGGGLVQAGGSLRLSCAASGGTFGRYAMGWYRQAPGKERELVADINWSGGGTYYADSVKGRFTISRDNAKNTVYLQMNSLKPEDTAVYYCGARVVEIFHWAGDYWGQGTQVTVSS"
result = "low polyreactivity"

[[record]]
polymer_sequence = "QVQLVESGGGFVQAGGSLRLSCAASGSTFHGYAMGWYRQEPGKERELVAAITSSGGSTYYADSVKGRFTISRDNAKNTVYLLMNILNPEVTEVYYCAARRYGWGRAQSSASYDHWGQGTQVTVSS"
result = "high polyreactivity"


Entry `QVQLVESGGGLVQAGGSLRLSCAASGSTFWFYAMGWYRPAPGKERELVAVISNSGSTYYADSVKGRFTISRDNAKNTVYLQMNSLQPEDTAVYYCNKDGGGDSYWYDYWGQGTQVTVSS` , polyreactivity (PSR sort gate) reported as low polyreactivity
